System: HUVEC cell line
Experiment: MTT cell viability assay on HUVEC
Assay type: cell-based, human
Settings: Homo sapiens, HUVEC, 24 h, read-out: HUVEC IC50, MTT, 24 hours treatment, mean ± SD, n = 3
assay_endpoint: IC50 (µM)
Give bare numbers, in µM.

Please fill in: IC50 reported for C=CCN1C(=O)/C(=C/c2cc(CN3CCc4ccccc4C3)c(O)c(OC)c2)SC1=S = 79.1

* * *

Biological target: AChE derived from Electrophorus electricus (Electrophorus electricus)
Construct: purchased Sigma-Aldrich (St. Louis, MO, USA)
Sequence (O42275 24-633): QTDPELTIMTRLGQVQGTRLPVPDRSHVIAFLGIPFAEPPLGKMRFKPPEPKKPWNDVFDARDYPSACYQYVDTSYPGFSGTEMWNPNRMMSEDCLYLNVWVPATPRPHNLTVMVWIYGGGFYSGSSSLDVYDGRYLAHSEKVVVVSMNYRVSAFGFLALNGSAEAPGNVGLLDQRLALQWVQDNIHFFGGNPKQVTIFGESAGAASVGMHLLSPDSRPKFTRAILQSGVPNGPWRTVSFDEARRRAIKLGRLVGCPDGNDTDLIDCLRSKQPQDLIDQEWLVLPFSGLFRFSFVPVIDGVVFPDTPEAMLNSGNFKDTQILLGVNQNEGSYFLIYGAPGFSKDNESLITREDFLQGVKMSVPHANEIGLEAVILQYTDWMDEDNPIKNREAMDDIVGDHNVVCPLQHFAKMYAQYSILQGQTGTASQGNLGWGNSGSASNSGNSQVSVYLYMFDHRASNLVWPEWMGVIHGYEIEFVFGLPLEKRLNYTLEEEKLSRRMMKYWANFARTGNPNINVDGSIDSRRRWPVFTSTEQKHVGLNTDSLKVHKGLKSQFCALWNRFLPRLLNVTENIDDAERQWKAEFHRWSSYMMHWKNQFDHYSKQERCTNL
Assay: AChE inhibition assay (modified Ellman's colorimetric method, Lineweaver–Burk Ki)
Assay type: biochemical, Electrophorus electricus (electric eel)
Conditions: ratio of BChE Ki to AChE Ki
Assignment: determine reported Selectivity (BChE/AChE) for the given compounds.
One number for each entry.

compound	assay_endpoint	result
C=CCN1C(=O)/C(=C/c2cc(CN3CCN(C(=O)OCC)CC3)c(O)c(OCC)c2)SC1=S	Selectivity (BChE/AChE)	1.29
C=CCN1C(=O)/C(=C/c2cc(CN3CCOCC3)c(O)c(OCC)c2)SC1=S	Selectivity (BChE/AChE)	1.42
C=CCN1C(=O)/C(=C/c2cc(CN3CCN(C(=O)OCC)CC3)c(O)c(OC)c2)SC1=S	Selectivity (BChE/AChE)	1.15
C=CCN1C(=O)/C(=C/c2cc(CN3CCN(c4ccccc4)CC3)c(O)c(OCC)c2)SC1=S	Selectivity (BChE/AChE)	1.16
C=CCN1C(=O)/C(=C/c2cc(CN3CCc4ccccc4C3)c(O)c(OC)c2)SC1=S	Selectivity (BChE/AChE)	0.77
C=CCN1C(=O)/C(=C/c2cc(CN3CCN(c4ccccc4)CC3)c(O)c(OC)c2)SC1=S	Selectivity (BChE/AChE)	1.09
C=CCN1C(=O)/C(=C/c2cc(CN3CCOCC3)c(O)c(OC)c2)SC1=S	Selectivity (BChE/AChE)	0.93
C=CCN1C(=O)/C(=C/c2cc(CN3CCCC(C)C3)c(O)c(OC)c2)SC1=S (stereo not shown)	Selectivity (BChE/AChE)	0.93
C=CCN1C(=O)/C(=C/c2cc(CN3CCN(C)CC3)c(O)c(OC)c2)SC1=S	Selectivity (BChE/AChE)	1.11

// next item, Selectivity (BChE/AChE) requested
Form field Selectivity (BChE/AChE) for item C=CCN1C(=O)/C(=C/c2cc(CN3CCN(c4ncccn4)CC3)c(O)c(OC)c2)SC1=S on AChE derived from Electrophorus electricus (Electrophorus electricus): 1.14
